test system: Mycobacterium avium; assay: Antimycobacterial activity against Mycobacterium avium My 330/80 after 21 days by micromethod; type: functional; details: My 330/80, 504 h
Catalogue of molecules with associated MIC

For the molecule O=C(Nc1ccc(Cl)c(Cl)c1)c1cc(Cl)c(Br)cc1O , give its measured MIC value.
125 µM

For the molecule O=C(Nc1ccc(Br)cc1)c1cc(Br)c(Cl)cc1O , give its measured MIC value.
32 µM

For the molecule O=C(Nc1ccc(Cl)c(Cl)c1)c1cc(Br)ccc1O , give its measured MIC value.
8 µM

For the molecule NNC(=O)c1ccncc1 [ISONIAZID] , give its measured MIC value.
> 250 µM

For the molecule O=C(Nc1cc(C(F)(F)F)cc(C(F)(F)F)c1)c1cc(Cl)c(Cl)cc1O , give its measured MIC value.
32 µM

For the molecule O=C(Nc1cc(C(F)(F)F)cc(C(F)(F)F)c1)c1ccc(Br)cc1O , give its measured MIC value.
32 µM

For the molecule O=C(Nc1ccc(C(F)(F)F)cc1)c1cc(Br)c(Br)cc1O , give its measured MIC value.
62.5 µM

For the molecule O=C(Nc1ccc(Cl)c(Cl)c1)c1ccc(Cl)cc1O , give its measured MIC value.
16 µM

For the molecule O=C(Nc1ccc(C(F)(F)F)cc1)c1cc(Cl)ccc1O , give its measured MIC value.
8 µM

For the molecule O=C(Nc1cc(C(F)(F)F)cc(C(F)(F)F)c1)c1cc(Br)c(Br)cc1O , give its measured MIC value.
32 µM

For the molecule O=C(Nc1ccc(Br)cc1)c1cc(Cl)ccc1O , give its measured MIC value.
8 µM

For the molecule O=C(Nc1ccc(C(F)(F)F)cc1)c1cc(Cl)c(Br)cc1O , give its measured MIC value.
32 µM

For the molecule O=C(Nc1ccc(Br)cc1)c1ccc(Cl)cc1O , give its measured MIC value.
16 µM

For the molecule O=C(Nc1ccc(C(F)(F)F)cc1)c1cc(Cl)c(Cl)cc1O , give its measured MIC value.
62.5 µM

For the molecule O=C(Nc1ccc(Br)cc1)c1cc(Br)ccc1O [DIBROMSALAN] , give its measured MIC value.
16 µM

For the molecule O=C(Nc1cc(C(F)(F)F)cc(C(F)(F)F)c1)c1cc(Br)c(Cl)cc1O , give its measured MIC value.
32 µM

For the molecule O=C(Nc1ccc(Br)cc1)c1cc(Br)c(Br)cc1O , give its measured MIC value.
32 µM
